Provide the reported MFI of each item.
Target: T1, human ICOS, full-length, expressed on transfected Expi293 cells (human, UniProt Q9Y6W8 21-199)
T1 construct: whole, on cells
T1 sequence (looked up): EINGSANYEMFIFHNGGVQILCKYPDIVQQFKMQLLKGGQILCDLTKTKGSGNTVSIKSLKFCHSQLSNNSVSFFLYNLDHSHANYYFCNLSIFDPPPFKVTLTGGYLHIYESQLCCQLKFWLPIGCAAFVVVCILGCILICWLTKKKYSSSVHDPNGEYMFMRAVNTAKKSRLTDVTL
Assay: flow cytometry, 100 nM, Expi293 cells with human ICOS
One number for each entry, in MFI.

Binder: variant ICOSL IgV-Fc fusion N52S/N57Y/Q100V (Fc fusion) DTQEKEVRAMVGSDVELSCACPEGSRFDLNDVYVYWQTSESKTVVTYHIPQSSSLEYVDSRYRNRALMSPAGMLRGDFSLRLFNVTPQDEQKFHCLVLSVSLGFQEVLSVEVTLHVAANFSVGSGGGGSEPKSSDKTHTCPPCPAPEAEGAPSVFLFPPKPKDTLMISRTPEVTCVVVDVSHEDPEVKFNWYVDGVEVHNAKTKPREEQYNSTYRVVSVLTVLHQDWLNGKEYKCKVSNKALPAPIEKTISKAKGQPREPQVYTLPPSREEMTKNQVSLTCLVKGFYPSDIAVEWESNGQPENNYKTTPPVLDSDGSFFLYSKLTVDKSRWQQGNVFSCSVMHEALHNHYTQKSLSLSPG
Unit of measurement: MFI
MFI: 219000
--
Binder: variant ICOSL IgV-Fc fusion N52S/N57L/Q100S (Fc fusion) DTQEKEVRAMVGSDVELSCACPEGSRFDLNDVYVYWQTSESKTVVTYHIPQSSSLELVDSRYRNRALMSPAGMLRGDFSLRLFNVTPQDEQKFHCLVLSSSLGFQEVLSVEVTLHVAANFSVGSGGGGSEPKSSDKTHTCPPCPAPEAEGAPSVFLFPPKPKDTLMISRTPEVTCVVVDVSHEDPEVKFNWYVDGVEVHNAKTKPREEQYNSTYRVVSVLTVLHQDWLNGKEYKCKVSNKALPAPIEKTISKAKGQPREPQVYTLPPSREEMTKNQVSLTCLVKGFYPSDIAVEWESNGQPENNYKTTPPVLDSDGSFFLYSKLTVDKSRWQQGNVFSCSVMHEALHNHYTQKSLSLSPG
Unit of measurement: MFI
MFI: 269000

Read the next record carefully.
q: Form field: reported MFI of variant ICOSL IgV-Fc fusion N52K/N57Y/Q100R (Fc fusion) DTQEKEVRAMVGSDVELSCACPEGSRFDLNDVYVYWQTSESKTVVTYHIPQKSSLEYVDSRYRNRALMSPAGMLRGDFSLRLFNVTPQDEQKFHCLVLSRSLGFQEVLSVEVTLHVAANFSVGSGGGGSEPKSSDKTHTCPPCPAPEAEGAPSVFLFPPKPKDTLMISRTPEVTCVVVDVSHEDPEVKFNWYVDGVEVHNAKTKPREEQYNSTYRVVSVLTVLHQDWLNGKEYKCKVSNKALPAPIEKTISKAKGQPREPQVYTLPPSREEMTKNQVSLTCLVKGFYPSDIAVEWESNGQPENNYKTTPPVLDSDGSFFLYSKLTVDKSRWQQGNVFSCSVMHEALHNHYTQKSLSLSPG
a: 199000
